pIC50: −log10 of the molar value.
Here we gather pIC50 data for STAT1 (Homo sapiens, UniProt P42224) reported by several publications.

compound	comparison sign	pIC50
O=C(N/N=C/c1coc2ccc(Cl)cc2c1=O)c1cccnc1	=	4.49
CC(C)(C)c1ccc2occ(C=O)c(=O)c2c1	=	4.82
C=CCSSCCOC(=O)/C=C/c1ccc(O)c(O)c1	<	4.52
O=C(/C=C/c1ccc(O)c(O)c1)Oc1ccc(-c2cc(=S)ss2)cc1	<	4.52
CS(=O)(=O)SCCCCC(=O)O	<	5.52
COCCOCOc1ccc(/C=C/C(=O)OCCSS(C)(=O)=O)cc1OCOCCOC	=	5.20
COCCOCOc1ccc(/C=C/C(=O)NCCSS(C)(=O)=O)cc1OCOCCOC	=	4.71
CC(C)(C)c1ccc2occ(/C=N/NC(=O)c3ccccc3)c(=O)c2c1	=	4.46
CS(=O)(=O)SCCOC(=O)/C=C/c1ccc(Cl)c(Cl)c1	=	5.72
C=CCSSCCOC(=O)/C=C/c1ccc(O)c(OC)c1	<	4.52
COc1cc(/C=C/C(=O)NCCSS(C)(=O)=O)ccc1O	<	4.52
COc1cc(/C=C/C(=O)OCCSS(C)(=O)=O)ccc1O	=	5.15
COc1cc(-c2cc(-c3cc(F)c(F)c(F)c3)cc(C(F)P(=O)(O)O)c2)cc(OC)c1OC (centres unmarked)	=	4.04
CS(=O)(=O)SCCOC(=O)/C=C/c1ccc(O)c(O)c1	=	4.77
